target: tau (Homo sapiens); experiment: MCE Phenols Library screening, tau biosensor cell seeding assay (AvZ); assay type: cell-based; settings: average of raw data 1 and 2
Below is a list of entries, each paired with its recorded av puncta value.

In the examples that follow, each entry is paired with its recorded av puncta.
compound	av puncta
CC(=O)O[C@H]1C(=O)c2c(O)cc(O)cc2O[C@@H]1c1ccccc1 [Pinobanksin 3-acetate]	20089.3
C[C@]12CC[C@@H]3c4ccc(O)cc4CC[C@H]3[C@@H]1C[C@@H](O)[C@@H]2O	23004.4
C#C[C@]1(O)CC[C@H]2[C@@H]3CCc4cc(O)ccc4[C@H]3CC[C@@]21C	24116.9

We next turn to a different compound, shown below.
Given O=C(O[C@@H]1Cc2c(O)cc(O)cc2O[C@@H]1c1cc(O)c(O)c(O)c1)c1cc(O)c(O)c(O)c1 [(-)-Epigallocatechin Gallate] , state its recorded av puncta. 1025.27

====

target: tau (Homo sapiens, UniProt P10636); experiment: MCE Phenols Library screening, tau biosensor cell seeding assay (AvZ); format: cell-based; conditions: Z score, replicate 1
Sequence (P10636 623-695 limits assumed): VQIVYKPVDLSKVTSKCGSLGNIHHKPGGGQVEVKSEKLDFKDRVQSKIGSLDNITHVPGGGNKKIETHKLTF
Measured Z repl 1 of individual entries
Hey, just send me the number, nothing else.

compound	Z repl 1
COc1c(O)c(C)cc2c1C(=O)c1c(O)cccc1C2=O [Obtusifolin]	-0.23
O=C(/C=C/c1ccc(O)c2oc(-c3ccc(O)c(O)c3)cc12)O[C@H](Cc1ccc(O)c(O)c1)C(=O)O [Salvianolic acid C]	-1.645
C#C[C@]1(O)CC[C@H]2[C@@H]3CCc4cc(O)ccc4[C@H]3CC[C@@]21C [Ethynyl Estradiol]	0.578
O=C(/C=C/c1ccc(O)cc1)OC[C@H]1O[C@@H](Oc2c(-c3ccc(O)cc3)oc3cc(O)cc(O)c3c2=O)[C@H](O)[C@@H](O)[C@@H]1O [Tribuloside]	-0.731
COc1cc(O)c2c(c1)oc(=O)c1c3cc(O)c(O)cc3oc21 [Wedelolactone]	-0.852

For the record CC(=O)c1cc(O)ccc1O [2,5-Dihydroxyacetophenone] , what value of Z repl 1 is listed for tau (Homo sapiens, UniProt P10636)? -0.264

Short answer please: Z repl 1, tau (Homo sapiens, UniProt P10636), entry O=C(/C=C/c1ccc(O)c(O)c1/C=C/c1ccc(O)c(O)c1)O[C@H](Cc1ccc(O)c(O)c1)C(=O)O [Salvianolic acid A] -2.14

Query the reported Z repl 1 for tau (Homo sapiens, UniProt P10636); item: Cc1cc(O)c2c(=O)c3c(O)cc(O)c4c5c(O)cc(O)c6c(=O)c7c(O)cc(C)c8c1c2c(c34)c(c78)c65 [Hypericin] -1.344

# get_value(readout= Z repl 1, system= tau (Homo sapiens, UniProt P10636)) for CCCC(=O)c1c(O)c(Cc2c(O)c(Cc3c(O)c(C)c(OC)c(C(=O)CCC)c3O)c(O)c(C(=O)[C@@H](C)CC)c2O)c(O)c(C)c1OC [Agrimol B] -1.539

====

biological target: tau (Homo sapiens, UniProt P10636); assay: MCE Phenols Library screening, tau biosensor cell seeding assay (AvZ); format: cell-based; conditions: puncta, replicate 1
Below is a list of entries, each paired with its recorded raw data 1 value.
Number, no unit, nothing else.

compound	raw data 1
COc1cc(C(=O)O)cc(OC)c1O	28000.6
O=C(O)C(O)Cc1ccc(O)cc1 (stereo not drawn) [Hydroxyphenyllactic acid]	23372.2
O=c1c(O[C@@H]2O[C@H](CO[C@@H]3O[C@H](CO)[C@@H](O)[C@H](O)[C@H]3O)[C@@H](O)[C@H](O)[C@H]2O)c(-c2ccc(O)cc2)oc2cc(O)cc(O)c12 [Kaempferol 3-O-gentiobioside]	31398.7
Oc1cc(O)cc(/C=C/c2c(O)cccc2O)c1	2096.46
O=C(/C=C/c1ccc(O)cc1)C1=C(O)C(O)([C@@H]2O[C@H](CO)[C@@H](O)[C@H](O)[C@H]2O)C(O)=C([C@@H]2O[C@H](CO)[C@@H](O)[C@H](O)[C@H]2O)C1=O (stereo partly drawn) [Hydroxysafflor yellow A]	16428.1

Now consider a different compound.
What value of raw data 1 has been recorded for this entry: Oc1cc(O)c2cc(O)c(-c3cc(O)c(O)c(O)c3)[o+]c2c1.[Cl-] [Delphinidin (chloride)] 426.071

====

Listing of recorded AvZ (average z score of seeding, SDs from the mean level of seeding) by entry.
target: UniProtKB P10636; assay: MCE Phenols Library screening, tau biosensor cell seeding assay (AvZ); format: cell-based; conditions: 10 μM phenol in cell cultures, AD brain homogenate preincubated 16 hours, two biological replicates; positive = catalyzes seeding, negative = inhibits

In the examples that follow, each entry is paired with its recorded AvZ (average z score of seeding, SDs from the mean level of seeding).
compound	result
O=C(O)c1ccc(O)c(O)c1	-0.565
N[C@@H](Cc1c[nH]c2ccc(O)cc12)C(=O)O [L-5-Hydroxytryptophan]	0.005
COc1ccc(O)cc1	0.258
COc1cc(CNC(=O)CCCC/C=C/C(C)C)ccc1O [Capsaicin, reference compound]	-0.318
O=C(O)c1c(O)cccc1O [2,6-Dihydroxybenzoic acid]	0.715
CCCCC[C@H](O)CC(=O)CCc1ccc(O)c(OC)c1	0.629
O=C(O)c1cccc(O)c1O	-0.338
O=C(/C=C/c1ccc(O)cc1)NCCc1c[nH]c2ccc(O)cc12	-0.185

Give the measured AvZ (average z score of seeding, SDs from the mean level of seeding) of COc1cc(CNC(=O)CCCCCC(C)C)ccc1O [Nordihydrocapsaicin] . -0.342

GET /values?readout=AvZ (average z score of seeding, SDs from the mean level of seeding)&item= Nc1ccc(O)c(C(=O)O)c1 [5-Aminosalicylic Acid, reference compound] -0.176

====

target: tau (Homo sapiens, UniProt P10636); test: MCE Phenols Library screening, tau biosensor cell seeding assay (AvZ); type: cell-based; conditions: Z score, replicate 1
property name: Z repl 1
Could you keep your reply to the number by itself?

# example entries with known answers
compound	Z repl 1
CC(Cc1ccc(O)c(O)c1)C(C)Cc1ccc(O)c(O)c1 (centres unmarked) [Nordihydroguaiaretic acid]	-0.326
CC(C)=CCc1cc(-c2coc3cc(O)ccc3c2=O)ccc1O	0.415
Oc1ccc(O)c(O)c1 [1,2,4-Trihydroxybenzene]	-1.617
O=C1c2cccc(O)c2C(=O)c2c(O)cccc21	-1.052

Look up Z repl 1 for this compound: O=C(/C=C/c1ccc(O)cc1)c1ccc(O[C@@H]2O[C@H](CO)[C@@H](O)[C@H](O)[C@H]2O)cc1O -0.046

For the compound O=C1N[C@@H]2C(=C[C@H](O)[C@@H](O)[C@H]2O)c2cc3c(c(O)c21)OCO3 , what Z repl 1 is on record? -2.127

Any idea what its Z repl 1 is? The compound is COc1cc(/C=C/C(=O)OC(C)C)ccc1O [Isopropyl ferulate] 0.168

Given the entry CC[C@H]1CN2CCc3cc(OC)c(OC)cc3[C@@H]2C[C@@H]1C[C@H]1NCCc2cc(O)c(OC)cc21.Cl.Cl [Cephaeline (dihydrochloride)] , report its measured Z repl 1. -0.202

====

target: tau (Homo sapiens, UniProt P10636); experiment: MCE Phenols Library screening, tau biosensor cell seeding assay (AvZ); type: cell-based; details: Z score, replicate 2
property name: Z Repl 2
Lab note: record the figure alone, no unit after it.

A selection of reference data follows.
compound	Z Repl 2
COc1cc(OC)c2c(=O)cc(-c3ccc(O)c(O)c3)oc2c1	1.915
O=c1c(O[C@@H]2O[C@H](CO[C@@H]3O[C@H](CO)[C@@H](O)[C@H](O)[C@H]3O)[C@@H](O)[C@H](O)[C@H]2O)c(-c2ccc(O)cc2)oc2cc(O)cc(O)c12 [Kaempferol 3-O-gentiobioside]	-0.356
COc1cc(-c2coc3cc4c(c(O)c3c2=O)OCO4)cc(O)c1OC	0.348
O=C(O)C(O)c1ccc(O)cc1 (centres unmarked) [p-Hydroxymandelic acid]	1.484
Oc1c(Br)cccc1Br	0.25
Oc1cc2cc[nH]c2cc1O [5,6-Dihydroxyindole]	-0.973
COc1c(O[C@@H]2O[C@H](C(=O)O)[C@@H](O)[C@H](O)[C@H]2O)cc(O)c2c(=O)cc(-c3ccccc3)oc12 [Wogonoside]	-0.756
C[C@H]1CCCC(=O)CCCCCc2cc(O)cc(O)c2C(=O)O1	-0.477

Look at this compound and give its reported Z Repl 2. COc1cc(CC(=O)C(=O)O)ccc1O -0.742

====

biological target: tau (Homo sapiens); experiment: MCE Phenols Library screening, tau biosensor cell seeding assay (AvZ); assay type: cell-based; conditions: Z score, replicate 2
Parameter Z Repl 2: see the listing below.
Provide a numeric answer; units are not to be included.

Known Z Repl 2 results, listed for orientation:
compound	result number
COc1cc(O)c2c(=O)c(OC)c(-c3ccc(OC)c(OC)c3)oc2c1	-0.37
CC(C)=CCC/C(C)=C/Cc1cc(-c2coc3cc(O)ccc3c2=O)ccc1O	-0.445
C=CCc1ccc(O)c(OC)c1	-0.861

Requested field: Z Repl 2. Item: O=c1c(O[C@@H]2OC[C@@H](O)[C@H](O)[C@H]2O)c(-c2ccc(O)c(O)c2)oc2cc(O)cc(O)c12 -0.104

Need Z Repl 2, item COc1ccc(-c2oc3cc(O)cc(O)c3c(=O)c2O)cc1O -0.633

What measured Z Repl 2 goes with N#CCc1ccc(O)cc1 [4-Hydroxybenzyl cyanide] ? -0.552

What measured Z Repl 2 goes with COc1ccc(C[C@@H]2c3cc(Oc4cc(C[C@@H]5c6cc(O)c(OC)cc6CCN5C)ccc4O)c(OC)cc3CCN2C)cc1 ? 0.423

Bench note: what Z Repl 2 did CCCCCCC[C@H](O)CC(=O)CCc1ccc(O)c(OC)c1 show? -0.537

Entry under review: COc1cc(OC)c(CCC(=O)c2ccc(O)cc2)c(OC)c1 . Reported Z Repl 2? 0.248

What measured Z Repl 2 goes with CC(C)=CCc1cc(C(=O)/C=C/c2ccc(O)cc2)c(O)cc1O ? -0.134

I am curious: what Z Repl 2 value has been reported for O=C(/C=C/c1ccc(O)cc1)c1ccc(O[C@@H]2O[C@H](CO)[C@@H](O)[C@H](O)[C@H]2O)cc1O ? 0.369

Need Z Repl 2, item O=c1c(O[C@@H]2O[C@H](CO)[C@@H](O)[C@H](O)[C@H]2O[C@@H]2O[C@H](CO)[C@@H](O)[C@H](O)[C@H]2O)c(-c2ccc(O)cc2)oc2cc(O)cc(O)c12 [Kaempferol 3-O-sophoroside] 0.035

Please report the recorded Z Repl 2 for O=C(O)c1ccccc1O [Salicylic acid, reference compound] . -0.017

Item Oc1ccc(O)c(O)c1 [1,2,4-Trihydroxybenzene] has what recorded Z Repl 2? -1.152

# lookup: Z Repl 2 of O=c1cc(-c2ccc(O)cc2)oc2cc(O)ccc12 [7,4'-Dihydroxyflavone] -0.135

Return reported Z Repl 2; argument: CN(C)[C@@H]1C(O)=C(C(N)=O)C(=O)[C@@]2(O)C(O)=C3C(=O)c4c(O)cccc4[C@@](C)(O)[C@H]3C[C@@H]12.Cl [Tetracycline (hydrochloride)] 0.47

Name the recorded Z Repl 2 for Oc1cc(O)cc(/C=C/c2c(O)cccc2O)c1 . -1.135

Quick one: Z Repl 2 for Nc1ccc(O)c(C(=O)O)c1 [5-Aminosalicylic Acid, reference compound] ? 0.2

Value lookup for Z Repl 2; key = CC(C)(O)CCc1c(O)cc(O)c2c(=O)c(O)c(-c3ccc(O)cc3)oc12 0.239
